Where do these numbers come from? They come from patent US10059701B2.

Target: IRAK1 (Homo sapiens)
Construct: His-TEV-IRAK1 (194-712); His (N); TEV cleavage site (N)
Test: IRAK1 enzymatic assay (ADP-Glo luminescence)
Settings: purified human recombinant His-TEV-IRAK1 (194-712)
// reported IC50 for each item listed
REPORTED_ENDPOINT: IC50

COMPOUND | REPORTED_RESULT
CC(F)(CO)Cn1/c(=N/C(=O)c2cccc(C(F)(F)F)c2)[nH]c2cc(N3CCCOC3=O)ccc21 (stereo not shown) | ≤ 100 nM
CC1(C)CCOC(=O)N1c1ccc2[nH]c(=NC(=O)c3cccc(C(F)F)c3)n(CCCO)c2c1 | 100 to 1000 nM
O=C(/N=c1\[nH]c2cc(N3CCN(C4CC4)CCC3=O)ccc2n1CCCO)c1cccc(C(F)(F)F)c1 | 100 to 1000 nM
C[C@H](CCO)n1/c(=N/C(=O)c2cccc(C(F)(F)F)c2)[nH]c2cc(N3CCCOC3=O)ccc21 | 100 to 1000 nM

====

Molecular target: IRAK1 (Homo sapiens, UniProt P51617)
Construct: His-TEV-IRAK1 (194-712); His (N); TEV cleavage site (N)
Sequence (P51617 194-712): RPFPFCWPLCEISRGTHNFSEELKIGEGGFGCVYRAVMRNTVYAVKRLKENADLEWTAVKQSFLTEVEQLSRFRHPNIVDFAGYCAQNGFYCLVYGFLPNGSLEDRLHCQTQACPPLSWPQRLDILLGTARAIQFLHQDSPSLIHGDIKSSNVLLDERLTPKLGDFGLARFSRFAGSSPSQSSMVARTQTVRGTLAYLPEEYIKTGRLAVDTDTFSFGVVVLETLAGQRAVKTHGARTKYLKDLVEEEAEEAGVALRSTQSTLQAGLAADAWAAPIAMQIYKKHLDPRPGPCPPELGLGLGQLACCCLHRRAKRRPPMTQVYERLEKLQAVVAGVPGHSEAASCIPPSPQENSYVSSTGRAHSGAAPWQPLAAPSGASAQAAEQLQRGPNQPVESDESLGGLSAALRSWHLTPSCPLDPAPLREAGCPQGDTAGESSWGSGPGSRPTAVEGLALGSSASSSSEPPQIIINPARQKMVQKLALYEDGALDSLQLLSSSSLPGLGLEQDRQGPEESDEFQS
Experiment: IRAK1 enzymatic assay (ADP-Glo luminescence)
Conditions: purified human recombinant His-TEV-IRAK1 (194-712)
Structures can show the parent of a compound that is named as a salt.
// reported IC50 for each item listed

MOLECULE | IC50
COc1cc2c(cc1N1CCOCC1=O)[nH]/c(=N\C(=O)c1cccc(C(F)F)c1)n2CCCO | ≤ 100 nM
CNS(=O)(=O)c1cccc(C(=O)/N=c2\[nH]c3cc(N4CCOCC4=O)ccc3n2CCCO)c1 | ≤ 100 nM
O=C(/N=c1\[nH]c2cc(N3CCOCC3=O)ccc2n1[C@H]1CC[C@H](O)CC1)c1cccc(C(F)F)c1 | ≤ 100 nM
O=C(/N=c1\[nH]c2cc(N3CCOCC3=O)ccc2n1C1CCNCC1)c1cccc(C(F)(F)F)c1 [Compound 128, hydrochloride] | > 1000 nM

====

Target: IRAK1 (Homo sapiens, UniProt P51617)
Construct: His-TEV-IRAK1 (194-712); His (N); TEV cleavage site (N)
Assay: IRAK1 enzymatic assay (ADP-Glo luminescence)
Settings: purified human recombinant His-TEV-IRAK1 (194-712)

COMPOUND | IC50
C[C@H](CCO)n1/c(=N/C(=O)c2cccc(S(C)(=O)=O)c2)[nH]c2cc(N3CCOCC3=O)ccc21 [Compound 24] | 0.1 to 1 µM
O=C(/N=c1\[nH]c2cc(N3CCOCC3=O)ccc2n1CCCO)c1cccc(F)c1 [Compound 35] | 0.1 to 1 µM
O=C(/N=c1\[nH]c2cc(N3CCOCC3=O)ccc2n1CCCO)c1cncc(C(F)(F)F)c1 [Compound 85] | 0.1 to 1 µM
O=C(/N=c1\[nH]c2cc(N3CCCOC3=O)ccc2n1CC1CCOCC1)c1cccc(C(F)(F)F)c1 [Compound 155] | 0.1 to 1 µM
O=C(/N=c1\[nH]c2cc(N3CCOCC3=O)c(Br)cc2n1CCCO)c1cccc(C(F)F)c1 [Compound 49] | 0.1 to 1 µM
COc1cc2c(cc1N1CCOCC1=O)[nH]/c(=N\C(=O)c1cccc(C(F)F)c1)n2[C@H](C)CCO [Compound 40] | ≤ 0.1 µM
O=C(/N=c1\[nH]c2cc(N3CCOCC3=O)c(Br)cc2n1CCCO)c1cccc(C(F)(F)F)c1 [Compound 50] | 0.1 to 1 µM
O=C(/N=c1\[nH]c2cc(N3CCOCC3=O)ccc2n1CC1(CO)CC1)c1cccc(C(F)(F)F)c1 [Compound 9] | 0.1 to 1 µM
C[C@H](CCO)n1/c(=N/C(=O)c2cccc(OC(F)F)c2)[nH]c2cc(N3CCOCC3=O)ccc21 [Compound 65] | ≤ 0.1 µM
O=C(/N=c1\[nH]c2cc(N3CCOCC3=O)ccc2n1CCCO)c1cccc(C(F)(F)F)c1 [Compound 86] | 0.1 to 1 µM
O=C(/N=c1\[nH]c2cc(N3CCOCC3=O)ccc2n1[C@H]1CC[C@@H](O)CC1)c1cccc(C(F)F)c1 [Compound 56] | ≤ 0.1 µM
O=C(/N=c1\[nH]c2cc(N3C(=O)COCC34CC4)ccc2n1CCCO)c1cccc(C(F)F)c1 [Example 190] | ≤ 0.1 µM
O=C(/N=c1\[nH]c2cc(N3CCCOC3=O)ccc2n1CC1COC1)c1cccc(C(F)(F)F)c1 [Compound 158] | 0.1 to 1 µM
O=C(/N=c1\[nH]c2cc(N3CCCOC3=O)ccc2n1C1CCS(=O)(=O)C1)c1cccc(C(F)(F)F)c1 (stereo not drawn) [Compound 157] | ≤ 0.1 µM
O=C(/N=c1\[nH]c2cc(N3CCNCC3=O)ccc2n1CCCO)c1cccc(C(F)(F)F)c1 [Compound 108] | ≤ 0.1 µM
O=C(/N=c1\[nH]c2cc(N3CCCOC3=O)ccc2n1CC1(C(=O)O)CC1)c1cccc(C(F)(F)F)c1 [Compound 174] | 0.1 to 1 µM
O=C(/N=c1\[nH]c2cc(N3CCOCC3=O)ccc2n1CCCO)c1cccc(-n2cnnc2)c1 [Compound 2] | 0.1 to 1 µM
O=C(/N=c1\[nH]c2cc(N3CCOCC3=O)ccc2n1C1CCCC(CO)C1)c1cccc(C(F)F)c1 (stereo not drawn) [Compound 121] | 0.1 to 1 µM
CS(=O)(=O)CCn1/c(=N/C(=O)c2cccc(C(F)F)c2)[nH]c2cc(N3CCOCC3=O)ccc21 [Compound 93] | ≤ 0.1 µM
O=C(/N=c1\[nH]c2cc(N3CCOCC3=O)ccc2n1CCCO)c1cccc(C(F)(F)F)n1 [Compound 84] | > 1 µM
CC1(C)C(=O)N(c2ccc3c(c2)[nH]/c(=N\C(=O)c2cccc(C(F)(F)F)c2)n3CCCO)CCN1C1CC1 [Compound 194] | 0.1 to 1 µM
O=C(/N=c1\[nH]c2cc(N3CCOCC3=O)ccc2n1CCCO)c1cccc(Cl)c1 [Compound 106] | 0.1 to 1 µM
Cc1ccc(C(=O)/N=c2\[nH]c3cc(N4CCOCC4=O)ccc3n2CCCO)cc1C(F)(F)F [Compound 78] | > 1 µM
CC1(C)CN(c2ccc3c(c2)[nH]/c(=N\C(=O)c2cccc(C(F)F)c2)n3CCCO)C(=O)O1 [Example 200] | 0.1 to 1 µM
CS(=O)(=O)c1cccc(C(=O)/N=c2\[nH]c3cc(N4CCOCC4=O)ccc3n2[C@H]2CC[C@@H](O)CC2)c1 [Compound 54] | ≤ 0.1 µM
[2H]C([2H])([2H])Oc1cc2c(cc1N1CCCOC1=O)[nH]/c(=N\C(=O)c1cccc(C(F)(F)F)c1)n2CCCO [Example 204] | ≤ 0.1 µM
O=C(/N=c1\[nH]c2cc(N3CCOCC3=O)c(Cl)cc2n1CCCO)c1cccc(C(F)F)c1 [Compound 142] | 0.1 to 1 µM
O=C(/N=c1\[nH]c2cc(N3CCOCC3=O)c(C3CC3)cc2n1CCCO)c1cccc(C(F)F)c1 [Example 209] | ≤ 0.1 µM
CN1CCCN(c2ccc3c(c2)[nH]/c(=N\C(=O)c2cccc(C(F)F)c2)n3CCCO)C1=O [Example 225] | 0.1 to 1 µM
O=C(/N=c1\[nH]c2cc(N3CCOCC3=O)ccc2n1CCCO)c1cccc(S(=O)(=O)C(F)(F)F)c1 [Compound 152] | ≤ 0.1 µM
